Hello, the source for this data is patent US20160368879A1, in case you need it.

For each record, write down the corresponding Solvent solubility PGMEA.
Assay: Solvent solubility (butyl acetate, toluene or PGMEA)
Type: physicochemical
Conditions: PGMEA, 25° C.
The figure you give is taken to be in wt %; do not add the unit.

Give the measured Solvent solubility PGMEA for `O=C1c2cccc3c(C(F)(F)C(F)(F)C(F)(F)C(F)(F)F)ccc(c23)C(=O)N1OS(=O)(=O)c1c(F)c(F)c(F)c(F)c1F`
13

Tell me measured Solvent solubility PGMEA for O=C1c2cccc3cccc(c23)C(=O)N1OS(=O)(=O)c1c(F)c(F)c(F)c(F)c1F [A′-3, reference compound] please.
1.9

Assign Solvent solubility PGMEA to the following record: `O=C(Oc1cc2c3c(cccc3c1)C(=O)N(OS(=O)(=O)c1c(F)c(F)c(F)c(F)c1F)C2=O)c1ccccc1`
16

Please report Solvent solubility PGMEA for the following compound: `O=C1c2cccc3c(Sc4ccccc4)ccc(c23)C(=O)N1OS(=O)(=O)c1c(F)c(F)c(F)c(F)c1F`
4

Tell me measured Solvent solubility PGMEA for `O=C1c2cccc3c(Br)ccc(c23)C(=O)N1OS(=O)(=O)c1c(F)c(F)c(F)c(F)c1F` please.
3.2

Give me measured Solvent solubility PGMEA, please, for this compound: CC1(C)C2CCC1(CS(=O)(=O)ON1C(=O)c3cccc4c(Oc5cccc(C(F)(F)F)c5)ccc(c34)C1=O)C(=O)C2 (stereo not shown)
2.8

Dear colleague, please send me the reported Solvent solubility PGMEA for `CC(C)Oc1ccc2c3c(cccc13)C(=O)N(OS(=O)(=O)c1c(F)c(F)c(F)c(F)c1F)C2=O` when you can.
4.5

Provide only the value of recorded Solvent solubility PGMEA for `O=C1c2cccc3c(C(F)(F)C(F)(F)C(F)(F)C(F)(F)F)ccc(c23)C(=O)N1OS(=O)(=O)C(F)(F)F`
22

State its Solvent solubility PGMEA for this compound: `CC(C)(C)c1cc2c3c(cc(C(C)(C)C)cc3c1)C(=O)N(OS(=O)(=O)c1c(F)c(F)c(F)c(F)c1F)C2=O`
6

Find the measured Solvent solubility PGMEA of `O=C(Oc1cc2c3c(cccc3c1)C(=O)N(OS(=O)(=O)C(F)(F)F)C2=O)c1ccccc1` and report it.
20

Note Solvent solubility PGMEA for the compound shown: CC(C)Oc1ccc2c3c(cccc13)C(=O)N(OS(=O)(=O)CC13CCC(CC1=O)C3(C)C)C2=O (stereo not shown)
1.8

Using known records, supply Solvent solubility PGMEA for `C[Si](C)(C)c1ccc2c3c(cccc13)C(=O)N(OS(=O)(=O)c1c(F)c(F)c(F)c(F)c1F)C2=O`
5.5

Supply Solvent solubility PGMEA value. Item: `O=C1c2cc(C34CC5CC(CC(C5)C3)C4)cc3cc(C45CC6CC(CC(C6)C4)C5)cc(c23)C(=O)N1OS(=O)(=O)C(F)(F)F`
7

Look up and report measured Solvent solubility PGMEA for this entry: `CC1(C)C2CC[C@@]1(CS(=O)(=O)ON1C(=O)c3cccc4c(Sc5ccccc5)ccc(c34)C1=O)C(=O)C2`
1.3

Respond only with Solvent solubility PGMEA recorded for `O=C1c2cccc3c(Oc4c(F)c(F)c(F)c(F)c4F)ccc(c23)C(=O)N1OS(=O)(=O)c1c(F)c(F)c(F)c(F)c1F`
11

Please list Solvent solubility PGMEA recorded for the compound CCCOc1ccc2c3c(cccc13)C(=O)N(OS(=O)(=O)CC13CCC(CC1=O)C3(C)C)C2=O (stereo not shown)
1.2
